- Assay System: Serine protease 1 (Homo sapiens, UniProt P07477)
- Sequence (P07477 whole entry): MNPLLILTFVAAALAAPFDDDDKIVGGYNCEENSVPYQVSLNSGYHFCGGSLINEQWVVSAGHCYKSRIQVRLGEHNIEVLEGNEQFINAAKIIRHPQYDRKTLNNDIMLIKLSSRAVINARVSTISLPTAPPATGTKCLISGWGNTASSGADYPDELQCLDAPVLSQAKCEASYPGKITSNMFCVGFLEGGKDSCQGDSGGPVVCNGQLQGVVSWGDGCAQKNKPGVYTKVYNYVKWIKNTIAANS
- Measurement Notes: Binding affinity was evaluated on serine protease trypsin.
Criterion: Ki strictly under 20 µM. Met: rule met. Not met: rule not met.

{"columns": ["Smiles Data", "Class"],
 "data": [
  ["CCN(CC)C(=O)CN[C@@H](C(=O)N1CCC[C@H]1C(=O)NCc1cc(Cl)ccc1Cl)C1CCCCC1", "rule not met"],
  ["N[C@@H](C(=O)N1CCC[C@H]1C(=O)NCc1cc(Cl)ccc1OCC(=O)NC1CC1)C1CCCCC1", "rule met"],
  ["N[C@@H](C(=O)N1CCC[C@H]1C(=O)NCc1cc(Cl)ccc1Cl)C1CCCCC1", "rule not met"],
  ["NC(=O)COc1ccc(Cl)cc1CNC(=O)[C@@H]1CCCN1C(=O)[C@H](N)C1CCCCC1", "rule met"],
  ["CCNC(=O)COc1ccc(Cl)cc1CNC(=O)[C@@H]1CCCN1C(=O)[C@H](N)C1CCCCC1", "rule not met"]
]}
